METHOD DESCRIPTION: Half-life determined in the urine of monkey
Format: ADME
CONDITION DETAILS: simiiformes
MEASUREMENT TYPE: half-life
For clarity, give the value followed by its unit.

If you can, please state the reported half-life value of Cl.c1ccc(C2(N3CCCCC3)CCCCC2)cc1 [PHENCYCLIDINE HYDROCHLORIDE] .
2.36 h

---

METHOD DESCRIPTION: Half-life determined in the urine of dog
Format: ADME, organism-based, Canis lupus familiaris
MEASUREMENT TYPE: half-life
For clarity, give the value followed by its unit.

If you can, please state the reported half-life value of Cl.c1ccc(C2(N3CCCCC3)CCCCC2)cc1 [PHENCYCLIDINE HYDROCHLORIDE] .
2.86 h
